// data source = the Deep4Chem optical property database

Assay protocol: solvent given as SMILES
Condition context: in CO
Quantity measured: absorption maximum (nm)

The cases that follow already have their absorption maximum on record.
COc1ccc2n1[B-](F)(F)[N+]1=C(SC#N)C=CC1=C2c1ccccc1 ... 480
COc1ccc(-c2nc(-c3ccccc3OC)[nH]c2-c2ccc(OC)cc2)cc1 ... 299
O=[N+]([O-])c1ccccc1O ... 338
Cc1ccc2cc3c(=O)n(C)c(=O)n(C)c3nc2c1 ... 352
COC(=O)[C@H](Cc1ccc2oc3c(c2c1)=CC1=C(c2ccc(OC)cc2)c2cc4c5cc(C[C@H](NC(=O)OC(C)(C)C)C(=O)OC)ccc5oc4n2[B-](F)(F)[N+]=31)NC(=O)OC(C)(C)C ... 580

(P) COc1ccc2cc([C@H](C)C(=O)O)ccc2c1
(Q) COC1=[N+]2C(=C(c3ccccc3)c3ccc(OC)n3[B-]2(F)F)C=C1SC#N
(R) CC1(C)C(/C=C/C2=C(Cl)C(=C/C=C3/N(CCCCCC(=O)O)c4ccccc4C3(C)C)/CCC2)=[N+](CCCCCC(=O)O)c2ccccc21
Ask | Put the compounds in ascending order of absorption maximum. I would appreciate it if you listed the labels in the requested order.
Reply | P, Q, R

(1) COc1nc(Nc2cc3ccc4cccc5ccc(c2)c3c45)nc(OC)n1
(2) CCOC(=O)CCCCCn1c2ccccc2c(=O)c2cc3c(cc21)c(=O)c1ccccc1n3CC
Ask | For this pair, 1 and 2 , which shows a numerically higher absorption maximum? Identify your pick by its label.
Reply | 2

###

Assay protocol: solvent given as SMILES
Condition context: in CC#N
Quantity measured: absorption maximum (nm)

CN(C)c1ccc(/C=C/C=C2\CCCC2=O)cc1 ... 409
COc1ccc(/C=C(\C#N)c2nc(-c3ccc(OC)cc3)cs2)cc1 ... 380
CCCCCCc1ccc(-n2c3[n+](c4c5ccccc5c5ccccc5c42)[B-](C)(C)c2ccccc2-3)cc1 ... 359
COc1cccc(/C=C/c2ccccc2)c1 ... 295
C(=C\c1nc(/C=C/c2ccc(-n3c4ccccc4c4ccccc43)cc2)nc(/C=C/c2ccc(-n3c4ccccc4c4ccccc43)cc2)n1)/c1ccc(-n2c3ccccc3c3ccccc32)cc1 ... 376
CCC1(CC)c2cc(C=O)ccc2-c2ccc(N(C)C)cc21 ... 385
COC(=O)C(NC(=O)OC(C)(C)C)c1ccc2oc(-c3cc(OC)c(OC)c(OC)c3)nc2c1 (centres undefined) ... 312
C[C@@]12SC(Cl)=CC1=c1nc(-c3ccccc3)[nH]c1=C1C=C(Cl)S[C@]12C ... 322
CCOC(=O)COc1ccc(/C=C/C2=C3c4ccccc4C(c4[nH]c(C)cc4C)=[N+]3[B-](F)(F)n3c(/C=C/c4ccc(OCC(=O)OCC)cc4)cc(C)c32)cc1 ... 667

###

Assay protocol: solvent given as SMILES
Condition context: in CCOC(C)=O
Quantity measured: absorption maximum (nm)

CCN(CC)c1ccc2cc(-c3ccc(S(C)(=O)=O)cc3)oc(=O)c2c1 ... 374
COc1ccc2n1[B-](F)(F)[N+]1=C(SC#N)C=CC1=C2c1ccccc1 ... 506
CCc1ccc(/C=N/c2cc(C(C)C)c(O)cc2C)cc1 ... 346
CN(C)c1ccc(C2=Cc3cccc[n+]3[B-](F)(F)O2)cc1 ... 416
CCN(CC)c1ccc(/C=C/C2=[O+][B-](F)(F)Oc3c2c(=O)oc2cc(N(CC)CC)ccc32)cc1 ... 571

(P) Cc1ccc(C2=C3C=CC=[N+]3[B-](F)(F)n3cccc32)cc1
(Q) Cc1ccc(C(=O)/C=C2\C(=O)Nc3ccccc32)cc1C
Ask | Which item exceeds the other in absorption maximum, P or Q ? Which one? Tell me its label.
Reply | P
(P: 497 nm, Q: 335 nm)

(1) CCN(CC)c1ccc2cc(-c3nc4ccccc4s3)c(=O)oc2c1
(2) Cc1ccc(NC(=O)c2sc(Br)nc2C)cc1
Ask | Would you mind telling me which has the lower recorded absorption maximum between 1 and 2 ? Answer = label.
Reply | 2
(2: 286.1 nm, 1: 439.4 nm)

###

Reported values of absorption maximum for individual entries
Assay protocol: solvent given as SMILES
Condition context: in CC(C)=O
Express the result in nm but write the number alone.

Below, 5 compounds whose answers are already recorded.
CN(C)c1ccc(/C=C/C(=O)c2ccc(Cl)cc2)cc1 ... 418
CCC1=C(C)C2=C(C)c3cc(I)c(I)n3[B-](F)(F)[N+]2=C1C ... 515.5
CCN1\C(=C/C=C/C=C/C2=[N+](CC)c3ccc4ccccc4c3C2(C)C)C(C)(C)c2c1ccc1ccccc21 ... 680
COc1ccc(-c2cc(-c3ccc(OC)cc3)c3c(N)nc(N4CCCC4)c(C#N)c3n2)cc1 ... 416
Cc1cc(C)c(B(c2ccc(-c3ccc(-c4nc5c6ccccc6c6ccccc6c5[nH]4)cc3)cc2)c2c(C)cc(C)cc2C)c(C)c1 ... 373

Ask | In one line, give reported absorption maximum of the entry `FC(F)(F)c1ccc(/C=C/c2ccc(-c3nnc(-c4ccc(-c5cc6ccccc6s5)cc4)o3)cc2)cc1` .
Reply | 342

Ask | Return reported absorption maximum. Input compound: `c1ccc(-c2nc(-c3ccc(-c4nc(-c5ccccc5)c(-c5ccccc5)[nH]4)cc3)[nH]c2-c2ccccc2)cc1`
Reply | 360

Ask | Supply reported absorption maximum belonging to this compound: CN(CCO)c1ccc(/C=C/C2=C(C#N)C(C(C#N)C#N)OC2(C)C)cc1 (centres undefined)
Reply | 574

Ask | Supply absorption maximum value. Item: `Cc1ccc(-n2c3ccccc3c3cc(C=C(C#N)C#N)ccc32)cc1`
Reply | 402

###

Assay protocol: solvent given as SMILES
Condition context: in CC#N
Quantity measured: absorption maximum (nm)

(I) CC(C)Oc1ccc(C#Cc2ccc3ccc(=O)oc3c2)cc1
(II) CC1(C)CC(/C=C/c2ccc(N3CCOCCOCCOCCOCC3)cc2)=CC(=C(C#N)C#N)C1
Ask | Please state the entry with greater absorption maximum among I and II . State the label of the item chosen.
Reply | II

###

Assay protocol: solvent given as SMILES
Condition context: in C1CCCCC1
Quantity measured: absorption maximum (nm)

# annotated cases, reported absorption maximum shown
COC(=O)C(Cc1ccc2oc(-c3ccc(N(c4ccccc4)c4ccccc4)cc3)nc2c1)NC(=O)OC(C)(C)C (centres undefined) ... 361.7
CN(C)c1ccc(C(=O)c2ccccc2)cc1 ... 325
CN(C)c1ccc(-c2ccc(-c3nc(C#N)c(C#N)n3C)cc2)cc1 ... 333
CCCC1(CCC)c2cc(-c3ccc4c(c3)C(CCC)(CCC)c3cc(-c5ccc6c(c5)C(CCC)(CCC)c5cc(C(C)(C)CC)ccc5-6)ccc3-4)ccc2-c2ccc(-c3ccc4c(c3)C(CCC)(CCC)c3cc(C(C)(C)CC)ccc3-4)cc21 ... 362
F[B-]1(F)n2ccnc2-c2cccc[n+]21 ... 298
CC(C)(C)[Si](C)(C)c1ccc([Si](C)(C)C(C)(C)C)c2ccccc12 ... 302
C#CCNC1=C2C(C)=CC(C)=[N+]2[B-](F)(F)n2c(C)cc(C)c21 ... 468.5

(A) COc1ccc(-c2ccc(OC)cc2)cc1
(B) CNc1cccc2c1C(=O)c1ccccc1-2
Ask | // compare: A vs B , metric absorption maximum, want the smaller Answer by quoting the chosen item's label.
Reply | A
(A: 271.81 nm, B: 432 nm)

###

Assay protocol: solvent given as SMILES
Condition context: in Cc1ccccc1
Quantity measured: absorption maximum (nm)
Numeric only. Scale: nm

Reference set, count: 8
CC(C)(C)c1ccc2c(c1)c1cc(C(C)(C)C)ccc1n2-c1ccc(-n2c3ccc(C(C)(C)C)cc3c3cc(C(C)(C)C)ccc32)c(C(=O)c2ccncc2)c1 ... 418
O=C(c1ccccc1)c1cc2ccc1CCc1ccc(cc1-c1ccc(N(c3ccccc3)c3ccccc3)cc1)CC2 ... 311
CCC1(CC)c2cc(/C=C/c3ccc(N(c4ccccc4)c4ccccc4)cc3)ccc2-c2ccc(/C=C/c3ccc(N(c4ccccc4)c4ccccc4)cc3)cc21 ... 412
Cc1cc(C)c(B(c2c(C)cc(C)cc2C)c2c(C)cc(-n3c4ccc(N(c5ccccc5)c5ccccc5)cc4c4cc(N(c5ccccc5)c5ccccc5)ccc43)cc2C)c(C)c1 ... 387
CCCCCCCCCCC1(CCCCCCCCCC)c2cc(N3C(=O)c4ccc5c6ccc7c8c(ccc(c9ccc(c4c59)C3=O)c86)C(=O)N(c3ccc4c(c3)C(CCCCCCCCCC)(CCCCCCCCCC)c3cc(N(c5ccccc5)c5ccccc5)ccc3-4)C7=O)ccc2-c2ccc(N(c3ccccc3)c3ccccc3)cc21 ... 528
O=c1c2cc(-n3c4ccccc4c4ccccc43)ccc2sc2ccc(-n3c4ccccc4c4ccccc43)cc12 ... 408
CCCCCCCCC1(CCCCCCCC)c2cc(C#CC#Cc3ccc(N(c4ccccc4)c4ccccc4)cc3)ccc2-c2ccc(C=O)cc21 ... 387
CN(C)c1ccc(/C=C2\CCCC2=O)cc1 ... 373

Ask | Tell us which absorption maximum value is on record for `CCC1=C(C)C2=C(c3c4ccccc4c(C)c4ccccc34)c3c(C)c(CC)c(C)n3[B-](F)(F)[N+]2=C1C`
Reply | 532

Ask | Hello, please tell me recorded absorption maximum for this one: `CSc1cc(-c2cc3cc4c5c(c3oc2=O)CCCN5CCC4)oc(=O)c1C#N`
Reply | 527

Ask | Provide only the value of recorded absorption maximum for `CC1=[N+]2C(=C(c3ccc(N(C)C)cc3)c3ccc(C)n3[B-]2(F)F)C=C1`
Reply | 509
